Biological target: Beta Secretase enzyme (BACE) (Homo sapiens (Human))
Sequence (P56817 46-501): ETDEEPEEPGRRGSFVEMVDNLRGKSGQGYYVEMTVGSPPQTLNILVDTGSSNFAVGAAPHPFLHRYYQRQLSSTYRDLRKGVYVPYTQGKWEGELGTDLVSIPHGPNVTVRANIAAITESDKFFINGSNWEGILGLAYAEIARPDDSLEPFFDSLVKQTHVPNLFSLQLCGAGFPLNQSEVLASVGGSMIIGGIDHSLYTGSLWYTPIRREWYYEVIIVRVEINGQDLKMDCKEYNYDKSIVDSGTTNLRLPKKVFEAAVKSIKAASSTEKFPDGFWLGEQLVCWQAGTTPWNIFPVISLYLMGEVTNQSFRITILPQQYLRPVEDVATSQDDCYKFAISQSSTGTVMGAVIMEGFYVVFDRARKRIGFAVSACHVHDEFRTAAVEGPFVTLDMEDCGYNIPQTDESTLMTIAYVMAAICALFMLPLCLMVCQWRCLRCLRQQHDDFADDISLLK
Assay: In vitro enzymatic BACE FRET assay
Assay type: biochemical
Conditions: read-out: BACE1 Enzyme assay IC50
pIC50: −log10 of the molar value. Structures can show the parent of a compound that is named as a salt.
The label depends only on pIC50: satisfied if it is at least 7, not satisfied if it is smaller.

[
  {
    "Compound": "CC(C)n1cc(Cl)c(C(=O)Nc2ccc(F)c([C@@]3(C(F)F)N=C(N)O[C@@H]4C[C@@H]43)c2)n1",
    "Group": "not satisfied"
  },
  {
    "Compound": "C#CCOc1cnc(C(=O)Nc2cnc(F)c([C@@]3(CF)N=C(N)O[C@@H]4C[C@@H]43)c2)cn1",
    "Group": "satisfied"
  },
  {
    "Compound": "NC1=N[C@@](c2cc(NS(=O)(=O)c3ccc(Cl)cn3)ccc2F)(C(F)F)[C@H]2C[C@H]2O1",
    "Group": "not satisfied"
  },
  {
    "Compound": "NC1=N[C@](CF)(c2cc(NC(=O)c3nn(C(F)F)cc3Cl)cnc2F)[C@H]2C[C@H]2O1",
    "Group": "satisfied"
  },
  {
    "Compound": "C[C@@]1(c2nc(NC(=O)c3ccc(C#N)cn3)ccc2F)N=C(N)O[C@H]2C[C@H]21",
    "Group": "not satisfied"
  },
  {
    "Compound": "C#CCOc1cnc(C(=O)Nc2cc(F)c(F)c(C3(CF)N=C(N)O[C@H]4C[C@H]43)c2)cn1 (stereo in doubt)",
    "Group": "not satisfied"
  },
  {
    "Compound": "NC1=N[C@@](c2cc(NC(=O)c3coc(C(F)F)n3)ccc2F)(C(F)F)[C@H]2C[C@H]2O1 [Example 150, trifluoroacetate]",
    "Group": "satisfied"
  },
  {
    "Compound": "COc1cnc(C(=O)Nc2ccc(F)c([C@]3(C)N=C(N)O[C@H]4C[C@H]43)n2)cn1",
    "Group": "not satisfied"
  },
  {
    "Compound": "C#CCOc1cnc(C(=O)Nc2cc(F)c(Cl)c([C@]3(CF)N=C(N)O[C@H]4C[C@H]43)c2)cn1",
    "Group": "not satisfied"
  },
  {
    "Compound": "NC1=N[C@](CF)(c2cc(NC(=O)c3ccc(F)cn3)ccc2Cl)[C@H]2C[C@H]2O1",
    "Group": "not satisfied"
  },
  {
    "Compound": "NC1=N[C@](CF)(c2cc(NC(=O)c3ncc(Cl)cc3F)ccc2Cl)[C@H]2C[C@H]2O1",
    "Group": "satisfied"
  },
  {
    "Compound": "NC1=N[C@](c2cc(NC(=O)c3ccc(Cl)cn3)ccc2F)(C(F)F)[C@@H]2C[C@@H]2O1 [Example 60]",
    "Group": "not satisfied"
  }
]

====

Target: BACE (Homo sapiens (Human), UniProt P56817)
Experiment: In vitro BACE cell-based assay (Aβ40 in conditioned medium, sandwich ELISA)
Metric Name: log10(IC50) (log10 of the value in µM)

[
  {
    "Molecule": "NC1=NC(CF)(c2cc(NC(=O)c3ccc(Br)cn3)cc(F)c2F)[C@@H]2C[C@@H]2O1 (stereo in doubt)",
    "log10(IC50)": 0.28
  },
  {
    "Molecule": "COc1cnc2c(Nc3ccc(F)c([C@@]4(C(F)F)N=C(N)O[C@@H]5C[C@@H]54)c3)ncc(F)c2c1",
    "log10(IC50)": -1.06
  },
  {
    "Molecule": "NC1=N[C@](CF)(c2cc(NC(=O)c3ccc(Cl)cn3)cc(F)c2F)[C@H]2C[C@H]2O1",
    "log10(IC50)": -1.58
  },
  {
    "Molecule": "Cc1nc(C(=O)Nc2ccc(F)c([C@@]3(C(F)F)N=C(N)O[C@@H]4C[C@@H]43)c2)co1",
    "log10(IC50)": -0.99
  },
  {
    "Molecule": "Cc1cc(Cl)cnc1C(=O)Nc1ccc(Cl)c([C@@]2(CF)N=C(N)O[C@@H]3C[C@@H]32)c1",
    "log10(IC50)": -1.87
  },
  {
    "Molecule": "NC1=N[C@@](c2cc(NC(=O)c3ccc(Cl)cn3)ccc2F)(C(F)F)[C@H]2C[C@H]2O1",
    "log10(IC50)": -1.52
  },
  {
    "Molecule": "CC#CCOc1cnc(C(=O)Nc2ccc(F)c([C@@]3(C)N=C(N)O[C@@H]4C[C@@H]43)c2)c(C)c1",
    "log10(IC50)": -2.52
  },
  {
    "Molecule": "Cc1cc(C(F)F)cnc1C(=O)Nc1ccc(F)c([C@@]2(CF)N=C(N)O[C@@H]3C[C@@H]32)c1",
    "log10(IC50)": -1.75
  },
  {
    "Molecule": "C[C@@]1(c2nc(NC(=O)c3ccc(Cl)cn3)ccc2F)N=C(N)O[C@H]2C[C@H]21",
    "log10(IC50)": -0.15
  },
  {
    "Molecule": "NC1=N[C@@](c2cc(NC(=O)CC(F)(F)F)ccc2F)(C(F)F)[C@H]2C[C@H]2O1",
    "log10(IC50)": 0.30
  },
  {
    "Molecule": "N#Cc1ccc(C(=O)Nc2ccc(F)c([C@@]3(C(F)F)N=C(N)O[C@@H]4C[C@@H]43)n2)nc1 (racemic) [Example 330]",
    "log10(IC50)": -1.49
  },
  {
    "Molecule": "C[C@]1(c2nc(NC(=O)c3ccc(Cl)cn3)ccc2F)N=C(N)O[C@@H]2C[C@@H]21",
    "log10(IC50)": -1.49
  },
  {
    "Molecule": "Cc1nc(OCC(F)(F)F)cnc1C(=O)Nc1cc(F)c(Cl)c([C@@]2(CF)N=C(N)O[C@@H]3C[C@@H]32)c1",
    "log10(IC50)": -1.03
  },
  {
    "Molecule": "Cc1cnc(C(=O)Nc2ccc(F)c([C@@]3(C(F)F)N=C(N)O[C@@H]4C[C@@H]43)c2)c(C)c1",
    "log10(IC50)": -0.83
  },
  {
    "Molecule": "C#CCOc1cnc(C(=O)Nc2ccc(F)c([C@@]3(C(F)F)N=C(N)O[C@@H]4C[C@@H]43)c2)cn1",
    "log10(IC50)": -2.10
  },
  {
    "Molecule": "NC1=N[C@](CF)(c2cc(NC(=O)c3ccc(Br)cn3)cc(F)c2F)[C@H]2C[C@H]2O1",
    "log10(IC50)": -1.75
  }
]
